Cited source: the supplement of paper PMC9170038

System: MS2 coat protein
Experiment: apparent KD of MS2 coat protein; higher = weaker reporter binding
Conditions: Eterna round: R107; input ligand: tryptophan 2.4 mM
Please mark 1 if the recorded apparent KD of MS2 coat protein is equal to or greater than 40 nM, and 0 if it falls below.

Inquiry: Could you verify whether the entry AUAACAUGAGGAUCACCCAUGUAGAGUGAUACCAGACUACGUAAUGUCCCUUGGCAGCACAAGUAAAGUUACGAAUAUUGAUAGA [JR_SSTheophyA_Sub003] shows apparent KD of MS2 coat protein of no less than 40 nM?
Reply text: 1

Inquiry: Does the sequence GGUUGGUGUAGAGAUAUAUUGAUUACUGAAGGAGCGGGACGAAACCCAGGUAGGUCGCAGAGAUCCACAUGAGGAUCACCCAUGU [!0.M] have recorded apparent KD of MS2 coat protein that is 40 nM or more?
Reply text: 0

Inquiry: Check this sequence for apparent KD of MS2 coat protein at or above 40 nM: UCAUGCAGGUCGGCCGCCACUACACACAUGAGGAUCACCCAUGUAGUUACUGGGUGAAGUGGCAGUAGGACCGGGACCUGCACAC [Brourdmod17]
Reply text: 1

Inquiry: Hello, I need to know if AAAUAAAUACAUGAGGAUCACCCAUGUGAAGGAGCGGCCGUUAGGCCAGGUAGGUCGCGCAUGAAUAACUCCGUGCAAAAGCACA [MAT - Exclusion Arginine A - Mod of Eli - D18] has measured apparent KD of MS2 coat protein not below 40 nM. Thanks!
Reply text: 0

Inquiry: In plain terms: is recorded apparent KD of MS2 coat protein at least 40 nM for CGAAAGCUCCUUAUGUGCUUUCGACUGGAAGGAGCGAGCGAAAGCUCAGGUAGGUCGCCAGAAACAUGAGGAUCACCCAUGUAAU [(A)''-(M)'-(A)'(Arg1)-(Arg2)-(M1)-(M2)_Design9] ?
Reply text: 0

Inquiry: Evaluate CAAACAUGAGGAUCACCCAUGUAAUCAGAUACCAGUGACGAAAGUCACCCUUGGCAGCUGAUUACUUUAGUUCUAAGGUGUUUGA [EThA NP+V+V2 #5 +-Same Structure] : apparent KD of MS2 coat protein at minimum 40 nM?
Reply text: 0

Inquiry: I'd appreciate it if you could say whether GCUGCUUAGGGAAGGAGCGCUGCGGAAUUGUGGAGGACAUGAGGAUCACCCAUGUUCCUGCGGCAGGUAGGUCGCUUUGGGCAGC [#17 Exclusion - Arginine B] has apparent KD of MS2 coat protein at least equal to 40 nM.
Reply text: 1

Inquiry: Record UUUGAUAGGACAGAUACCAGCGUGUUGUAGAACAUGAGGAUCACCCAUGUAGUGAUCAAGCGCCCUUGGCAGCUGGUUUGUUAGG [7.L] ; criterion: apparent KD of MS2 coat protein no lower than 40 nM. Met?
Reply text: 1

Inquiry: Threshold query (apparent KD of MS2 coat protein >= 40 nM) on UGGGUUGGACCAGGAAAUGGUCUGACUCACCGAGGACCGGUACGGCCGCCACUCGUAGGUACAUGAGGAUCACCCAUGUCGGUGG [#1 Same State - Tryptophan A Attempt #11 (HarryS)]
Reply text: 1

Inquiry: Given UGUUUUUAUCGAAGGAGCGCCGCAUGAGGAUCACCCAUGCACAUGAGGAUCACCCAUGUCUGGCAGGUAGGUCGCGAUCAAUGGG [Same State Arginine B GF 11] , state whether its apparent KD of MS2 coat protein is at least 40 nM.
Reply text: 1

Inquiry: // inclusive: apparent KD of MS2 coat protein at least 40 nM? input: UGACAUUGCUGCGAUACCAGACAUGAGGAUCACCCAUGUACCAAGGUACCCGAAAGGAAUGUCCCUUGGCAGCGCAGCAAUGUCU [MAT - Exclusion Theophlline B - Mod of Eli - D18]
Reply text: 0

====

Tested on: MS2 coat protein
Experiment: apparent KD of MS2 coat protein, switch OFF state (with FMN for OFF switches, without FMN for ON switches); designed switch direction (-1 OFF switch, 1 ON switch): -1; higher = weaker reporter binding
Settings: FMN input: 0 or 200 uM; Eterna round: R93 (includes R88 designs)
Exercise: for every item that follows, state its recorded apparent KD of MS2 coat protein.
# value in nM; strip the unit string

Inquiry: Can you share its apparent KD of MS2 coat protein? I mean this sequence: UAAAAUAAAGGAUAUAAAACAGAGGAUAUACAUAAAUAAAAACAUGAGGAUCACCCAUGUAGAAGGCUGAAAAU [Meechl Ex2 R2 m1]
Reply text: 28.4

Inquiry: Bench note: what apparent KD of MS2 coat protein did AACUAGUCAGGAUAUGCGAACAGAUAAUAAGCUACACAAAAGCAGAAGGGACAUGAGGAUCACCCAUGUAAAUA [JR_Exc004_Sub502] show?
Reply text: 33

Inquiry: I'd like to know its apparent KD of MS2 coat protein. The sequence in question is AGCUAGUCAGGAUAUACGAACAGGUCAAAAGACGUAAGGGAACAUGAGGAUCACCCAUGUAGAAGGGACUAGCA [Diamond 52]
Reply text: 84.3

Inquiry: Give its apparent KD of MS2 coat protein value. Item: AAGAACGGAGGAUAUACAAAAUAAAAGAAAAGAAAGAAAGAACAUGAGGAUCACCCAUGUAGAAGGCUGAAGAA [Merneferre Ay I]
Reply text: 35.2

Inquiry: Look up apparent KD of MS2 coat protein: UACAUACAUGAGGAUCACCCAUGUCAGGAUAUGUGCUCAGUGAAAAACAAAGAAACAAGCAGAAGGGACACUAA [JR_Exc001_Sub203]
Reply text: 37.5

Inquiry: Dear colleague, I am looking for the recorded apparent KD of MS2 coat protein of the following sequence: GGUUGGCGAGGAUAUACAUGAGGAUCACCCAUGUGAGAGAAAAAAGUGAUAAAGAAAAGUAGAAGGCGCUGACG [salish99-ex3-32]
Reply text: 2470

====

Tested on: MS2 coat protein
Assay: apparent KD of MS2 coat protein; designed switch direction (-1 OFF switch, 1 ON switch): -1; higher = weaker reporter binding
Conditions: input ligand: microRNA oligo, concentration not stated
measurement-type: apparent KD of MS2 coat protein (nM)
Answer format: numeric, nM implied, no suffix.

Inquiry: Entry under review: AUUUAAUUUAGCGAGAUCACAUGAGGAUCACCCAUGUAUAUAUAGGAUAUCAGCUCGAAUAGAGCUGAGAAGGAUAUAUACCGC [ExNG3/7-A4] (Eterna round: R96, puzzle: Exclusion NG 3) . Reported apparent KD of MS2 coat protein?
Reply text: 76.7

Inquiry: # query: apparent KD of MS2 coat protein of entry UGUUGUUACGCAGGAUAUUGUCAACAGGCAAUAGGAUAUCCGAAAGGAGAAGGAUCGCCAACAGGCGAGAAGGGCGGGUUAACA [pwkr exNG2 2xF7 2xFMN.1] (Eterna round: R96, puzzle: Exclusion NG 2)
Reply text: 1580

Inquiry: Given the sequence UGUUGUCGCGCAGGAUAUGAGGAUCACCCAUAUAAAGGAUAUGAAAAGAAGGUUCUGAGGAUCACCCAGAAGGGCGGGACAACU [pwkr exNG2 2xF5 2xFMN.18] (Eterna round: R96, puzzle: Exclusion NG 2) , what is its reported apparent KD of MS2 coat protein?
Reply text: 49

Inquiry: Entry AGCUGUGGCCGAGGAUAUGACAUGAGGAUCACCCAUGUACGUAAUUAGGCCUGGUAACAGGCUCGUCAGAAGGCGGUCUCAGCA [Eli eng2 - 008] (Eterna round: R96, puzzle: Exclusion NG 2) : reported apparent KD of MS2 coat protein = ?
Reply text: 7.43

Inquiry: Param item = AGCUGUGGCCGAGGAUAUCUAUCCCAAAUAACCGAAAUAUAAUCGGACAUGAGGAUCACCCAUGUAGAGAAGGCGGUCUCAGCA [Eli eng2 - 088] (Eterna round: R96, puzzle: Exclusion NG 2) ; retrieve measured apparent KD of MS2 coat protein.
Reply text: 20.4

====

System: K4 kissing-loop RNA reporter;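 also: bound reporter read as fluorescence of individual clusters on recovered sequencing chips by microscopy, with normalized cluster intensities fitted with a binding model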
Experiment: apparent KD of K4 kissing-loop reporter; higher = weaker reporter binding
Settings: Eterna round: R107; input ligand: none
measurement-type: apparent KD of K4 kissing-loop reporter (nM)
A number alone suffices; assume nM.

Inquiry: Looking for the measured apparent KD of K4 kissing-loop reporter of CACCCUAGUUCAGAUACCAGACUAGAGACAGUGAUGUUGUCACAUCCUAAAUUGGGUGUAGUCCCUUGGCAGCUGAGUAAUCUGC [Theo B/Ex/SS double] , can you help?
Reply text: 724

Inquiry: Recorded apparent KD of K4 kissing-loop reporter of CUUAAGAUAUGAGUGAUGUUCAUGUCCGAAGGAGCGUGCGAAAGCACAGGUAGGUCGCGGAUGUGAGUGAUGUUCAUGUAAGCGA [KL-XArg-A12 #analogue] , please.
Reply text: 119

Inquiry: Given the entry AAGUUAUGAUCUGAUACCAGACUUUAUCUUGUUUAUAAGUCAAGUGAUGUUUGACUAUUAGUCCCUUGGCAGCAGUAUUGUUUAA [#18 K4 Theophylline B Same State] , report its measured apparent KD of K4 kissing-loop reporter.
Reply text: 302

Inquiry: Which apparent KD of K4 kissing-loop reporter is reported for this sequence? `GGAAGGAAGGAAACCAACCAACCAACCGAUACCAGCGGAAGAGAACGCCCUUGGCAGCGGAGAAAGCCAGUGAUGUUGGAAAGAA`
Reply text: 402

Inquiry: So what's the measured apparent KD of K4 kissing-loop reporter for this one? AAAUUUAUAUUAGAUACCAGUUUAAUGGAUGUAAAUUAUGACAUGAGUGAUGUUCAUGUAAGCCCUUGGCAGCUGGUAUGGGUUU [KL-XTheo-B21]
Reply text: 121

Inquiry: Item CAAUGAAUAUAAGAUGAUAUCAUAACAGAAGGAGCGAGUGAUAACUCAGGUAGGUCGCUGAAUUUAUCGAGUGAUGUUCGAUAAA [Same State Arginine A GF10] has what recorded apparent KD of K4 kissing-loop reporter?
Reply text: 197
